- system_name: Fuc(a1-2)Gal6S(b1-4)Glc6S
- test_name: glycan array binding signal (z-score within array); higher = stronger binding
- condition_summary: glycan notation: IUPAC condensed, linker removed
The sample as a whole holds a higher share of the strongest signals than the screen did.
Listing of recorded glycan array binding signal (z-score) by entry.
Answer using only a numeral; do not append any unit.

binder	glycan array binding signal (z-score)
LngA (Escherichia coli) (protein) MLSVYNRTQKFKAEARKKIAKYHELRKQRGMSLLEVIIVLGIIGTIAAGVVILAQRAFDSRAVTDLVTNTNTVRVRMKDAYQRDGKYPDFVDPLSLTANTIKTDTSGIPAAQLVQLGKITPDEVRNNISGDFIAIGGALTSNGAQVKKGFAIELNGLSQEQCRSILGQVGNNWEYVAIGTSASGSYAMTATGVDMSVAASTTVLRSLGNNGQTTLTADKILSTCTAQVNSITLGSR	0.398
PEB4 (Campylobacter jejuni), A1VYV6 (protein) MKKFSLVAAALIAGVALNVNAATVATVNGKSISDAEVSEFFAPMLRGQDFKTLPDNQKKALIQQYIMQDLILQDAKKQNLEKDPLYTKELDRAKDAILVNVYQEKILNTIKIDAAKVKAFYDQNKDKYVKPARVQAKHILVATEKEAKDIINELKGLKGKELDAKFSELAKEKSIDPGSKNQGGELGWFDQSTMVKPFTDAAFALKNGTITTTPVKTNFGYHVILKENSQAKGQIKFDEVKQGIENGLKFEEFKKVINQKGQDLLNSAKVEYK	0.571
Pwp5 ND (Candida glabrata) (protein) MGSSHHHHHHSSGLVPRGSHMASANPVPLTNVCYFPEEYPRQAGFRAITAGLASTILQGSVDELLNYSGLSSLTTQQTTTTTPNFQLPTLPLPTNVYGLTVVPLYLLVQLQGYFVPPVSGQYTFSLENTNDAAIIFFGNPSAFPCGDLSAWPQASADDITVTDGTFPSRTLFLKAGVAYPMRISYYNSLGSGNLAVSFTDPGGTKRTNWNGYIWRYNSCSTCTYT	2.41

Okay, now this binder:
Query: What glycan array binding signal (z-score) value was documented for this binder, Mg3lysM (Mycosphaerella graminicola) (protein) APQNPPTSCSAAPQPTGTGSPGTVCGSTTFTNYTVKAGDTLGAIAKQYNSGVCDIAKVNGIDNPDYIKPDQVLSIPANCVTPDNTSCVKPVPVITNTCVLGVGSTYTVKSGDSFSAIATSFNITLASLEARNPQIPNYDLIFPGQVINTPLCPNSVCDSIGTYVIESGDIFYNLAQSNNVTVGQLESLNVNVNVTDIHPGDIIILPHNCHNITASA ?
Reply: -0.1
